# assay_system: T1, Sgf29 D266E variant, residues 115-293 (human, UniProt Q96ES7 115-293, D266E)
# T1 construct: source: E. coli Rosetta BL21 DE3 PlysS, purified (Ni-NTA, TEV cleavage, SEC Superdex 75)
# T1 sequence (looked up): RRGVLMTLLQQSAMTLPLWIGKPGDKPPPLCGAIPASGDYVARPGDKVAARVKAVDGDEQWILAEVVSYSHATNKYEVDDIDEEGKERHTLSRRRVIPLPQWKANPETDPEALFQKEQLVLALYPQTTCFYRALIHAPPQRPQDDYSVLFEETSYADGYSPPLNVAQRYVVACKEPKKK
# measurement_protocol: ITC; peptide (generally 1.2 mM) titrated to protein (100 uM); for variants of low affinity 2.4 mM peptide to 200 uM protein; 25 mM TRIS pH 8.0, 50 mM NaCl, 1 mM DTT; one-site model
# settings: both partners purified
No end group written: not given here. Me3 = trimethyl (on lysine, trimethyllysine)
measure_name: pKd
Convention used: pKd is expressed as -log10 of the molar concentration.

Can you look up the measured pKd of ARTK(Me3)QTARKS-OH (histone H3 N-terminal tail, 10-mer, K4 trimethylated; also called native 10-mer peptide; source: synthetic peptide (manual Fmoc solid-phase synthesis, preparative HPLC)) [10-mer histone 3 peptide H3K4me3 (ARTKme3QTARKS)] for me?
5.41
